pKd values, listed per item
Target: KRas G12D (Homo sapiens, UniProt P01116, G12D)
Assay: KRas G12D Surface Plasmon Resonance (SPR) Binding Assay
Conditions: Biacore T200, biotinylated Avidin-tagged KRAS protein on SA chip, 20 C, 1:1 binding model
Sequence (P01116 1-188 isoform P01116-2 G12D): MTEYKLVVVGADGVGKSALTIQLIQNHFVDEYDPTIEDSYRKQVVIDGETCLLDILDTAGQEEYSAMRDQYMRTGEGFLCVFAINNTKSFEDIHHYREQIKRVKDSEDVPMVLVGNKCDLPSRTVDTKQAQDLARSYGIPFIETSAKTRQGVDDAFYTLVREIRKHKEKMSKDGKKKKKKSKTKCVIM
FYI, pKd means -log10 of a concentration in mol per litre.

Some molecules with recorded pKd:
molecule | test-system | observed-result
CC1CCCc2cccc(N3CCc4c(nc(OC[C@@H]5CCCN5C)nc4N4C[C@H]5CC[C@@H](C4)N5)C3)c21 (stereo partly drawn) | KRas G12D (Homo sapiens, UniProt P01116, G12D) | 6.83
COC1CC(N2CCc3c(nc(OC[C@@H]4CCCN4C)nc3N3C[C@H]4CC[C@@H](C3)N4)C2)c2ccccc21 (stereo partly drawn) | KRas G12D (Homo sapiens, UniProt P01116, G12D) | 4.61

Please look at the following molecule next.
KRas G12D (Homo sapiens, UniProt P01116, G12D) pKd of `CN1CCC[C@H]1COc1nc2c(c(N3C[C@@H]4C[C@H](CO)[C@H](C3)N4)n1)CCN(c1cc(O)cc3ccccc13)C2` is 5.85

* * *

Biological target: KRas G12D (Homo sapiens, UniProt P01116, G12D)
Assay: KRas G12D Binding Assay (TR-FRET displacement of labeled tracer)
Set-up: corresponding to amino acids 1:169, produced at Array BioPharma; biotin (protein is biotinylated)
Settings: TR-FRET displacement of Cy5 labelled tracer, biotinylated GDP-loaded KRAS G12D (aa 1:169), 60 minute incubation at 22° C.
Sequence (P01116 1-169 isoform P01116-2 G12D): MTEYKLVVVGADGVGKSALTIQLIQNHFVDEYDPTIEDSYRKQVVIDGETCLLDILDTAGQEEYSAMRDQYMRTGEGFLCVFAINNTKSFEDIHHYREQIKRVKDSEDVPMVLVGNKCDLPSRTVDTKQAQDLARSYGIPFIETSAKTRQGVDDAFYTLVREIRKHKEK
property-label: pIC50
FYI, pIC50 means -log10 of a concentration in mol per litre.

Example entries and their recorded answers appear below.
compound | test-system | pIC50
CN1CCC[C@H]1COc1nc2c(c(N3C[C@H]4CC[C@@H](C3)N4)n1)CCN(c1cccc3ccc(F)c(Cl)c13)C2 | KRas G12D (Homo sapiens, UniProt P01116, G12D) | 7.82
COC[C@@H]1C[C@@H]2CN(c3nc(OC[C@@H]4CCCN4C)nc4c3CCN(c3cccc5cccc(Cl)c35)C4)C[C@H]1N2 (single isomer, unassigned) | KRas G12D (Homo sapiens, UniProt P01116, G12D) | 6.44
CN1CCC[C@H]1COc1nc2c(c(N3C[C@@H]4C[C@@H](O)[C@H](C3)N4)n1)CCN(c1cccc3cccc(Cl)c13)C2 | KRas G12D (Homo sapiens, UniProt P01116, G12D) | 7.30
CCc1cccc2cccc(N3CCc4c(nc(OC[C@@]56CCCN5C[C@H](F)C6)nc4C4CC5CCC(N5)C4O)C3)c12 (stereo in doubt) | KRas G12D (Homo sapiens, UniProt P01116, G12D) | 6.29
CCCCc1cccc2cccc(N3CCc4c(nc(OC[C@@H]5CCCN5C)nc4N4C[C@H]5CC[C@@H](C4)N5)C3)c12 | KRas G12D (Homo sapiens, UniProt P01116, G12D) | 6.15

Entry under test: `CN1CCC[C@H]1COc1nc2c(c(N3C[C@H]4CC[C@@H](C3)N4)n1)CCN(c1cc(O)c(Br)c3ccccc13)C2` . Its pIC50 was 8.26

CCc1cccc2cccc(N3CCc4c(nc(OCC56CCCN5[C@@H](COC(=O)N(C)C)CC6)nc4N4CC5CCC(C4)N5)C3)c12 (some centres unmarked) yielded pIC50 of 8.89

pIC50 for `CN1CCC[C@H]1COc1nc2c(c(N3C[C@H]4CC[C@@H](C3)N4)n1)CCN(c1cccc3cccc(CCCCO)c13)C2` is 5.43

# compound `CN1CCC[C@H]1COc1nc2c(c(N3C[C@H]4CC[C@@H](C3)N4)n1)CCN(c1cccc3cccc(F)c13)C2` ; its pIC50 = 5.96

Summary for this compound, `CN1CCC[C@H]1COc1nc2c(c(N3C[C@H]4CC[C@@H](C3)N4)n1)CCN(c1cccc3c(F)cccc13)C2` : pIC50 is 5.75

# compound `Cc1cccc(N2CCc3c(nc(OCC45CCCN4CCC5)nc3N3C[C@H]4CC[C@@H](C3)N4)C2)c1C(F)(F)F` ; its pIC50 = 7.89

What the record says about CN1CCC[C@H]1COc1nc2c(c(N3CC4CC(O)(C(F)F)C(C3)N4)n1)CCN(c1cccc3cccc(Cl)c13)C2 (some centres unmarked) : pIC50 is 5.50

Noted for `CN1CCC[C@H]1COc1nc2c(c(N3C[C@H]4C[C@@H](CCN)[C@@H](C3)N4)n1)CCN(c1cccc3cccc(Cl)c13)C2` : its pIC50 reads 5.57

Just so you know, measured pIC50 for C[C@H]1CC2CN(c3nc(OC[C@@H]4CCCN4C)nc4c3CCN(c3cccc5cccc(Cl)c35)C4)C[C@H]1N2 (single isomer, unassigned) came out at 5.96

The recorded pIC50 for CN1CCC[C@H]1COc1nc2c(c(N3CC4CC(F)C(C3)N4)n1)CCN(c1cc(O)cc3ccccc13)C2 (some centres unmarked) is 7.13

// `Oc1cc(N2CCc3c(nc(OC[C@@]45CCCN4C[C@H](F)C5)nc3N3C[C@H]4CC[C@@H](C3)N4)C2)c2c(Cl)cccc2c1` : pIC50 value = 9.15

Summary for this compound, CN1CCC[C@H]1COc1nc2c(c(N3CC4CCC(C)(C3)N4)n1)CCN(c1cc(O)cc3ccccc13)C2 (some centres unmarked) : pIC50 is 6.73

* * *

Molecular target: KRas G12D (Homo sapiens, UniProt P01116, G12D)
Assay: KRas G12D Surface Plasmon Resonance (SPR) Binding Assay
Settings: Biacore T200, biotinylated Avidin-tagged KRAS protein on SA chip, 20 C, 1:1 binding model
property-label: pKd
Hey, just a heads up that pKd is the negative log base 10 of the concentration in molar.

Look over these answered cases.
compound | test-system | observed-result
C[C@@H]1CC2CN(c3nc(OC[C@@H]4CCCN4C)nc4c3CCN(c3cccc5cccc(Cl)c35)C4)C[C@H]1N2 (single isomer, unassigned) | KRas G12D (Homo sapiens, UniProt P01116, G12D) | 6.15
CN1CCC[C@H]1COc1nc2c(c(N3C[C@H]4CC[C@@H](C3)N4)n1)CCN(c1cccc3c1CCCC3)C2 | KRas G12D (Homo sapiens, UniProt P01116, G12D) | 5.37
CN1CCC[C@H]1COc1nc2c(c(N3C[C@@H]4C[C@H](O)[C@H](C3)N4)n1)CCN(c1cc(O)cc3ccccc13)C2 (single isomer, unassigned) | KRas G12D (Homo sapiens, UniProt P01116, G12D) | 4.41

Value of pKd reported for the compound CN1CCC[C@H]1COc1nc2c(c(N3C[C@H]4CC(CCO)[C@@H](C3)N4)n1)CCN(c1cccc3cccc(Cl)c13)C2 (stereo partly drawn) is 6.75

Summary for this compound, `CN1CCC[C@H]1COc1nc2c(c(N3C[C@H]4CC[C@@H](C3)N4)n1)CCN(c1cc(O)c(Br)c3ccccc13)C2` : pKd is 7.68

Value of pKd reported for the compound O[C@@H]1C[C@@H]2CN(c3nc(OCC45CCCN4CC(F)C5)nc4c3CCN(c3cccc5cccc(Cl)c35)C4)C[C@H]1N2 (mixture of isomers) is 8.72

So for C[C@H]1CC2CN(c3nc(OC[C@@H]4CCCN4C)nc4c3CCN(c3cccc5cccc(Cl)c35)C4)C[C@H]1N2 (single isomer, unassigned) , the logged pKd turned out to be 5.68

Value of pKd reported for the compound `CN1CCC[C@H]1COc1nc2c(c(N3C[C@H]4CC[C@@H](C3)N4)n1)CCN(c1c(O)ccc3ccccc13)C2` is 4.29

So, `CN1CCC[C@H]1COc1nc2c(c(N3C[C@@H]4C[C@@H](O)[C@H](C3)N4)n1)CCN(c1cccc3cccc(Cl)c13)C2` ? Its pKd was 7.23

# pKd of `Cc1cccc(N2CCc3c(nc(OCC45CCCN4CCC5)nc3N3C[C@H]4CC[C@@H](C3)N4)C2)c1C(F)(F)F` = 7.17

Looking up `Cc1cccc2cccc(N3CCc4c(nc(OC[C@@H]5CCCN5C)nc4N4C[C@H]5CC[C@@H](C4)N5)C3)c12` , I found its pKd recorded as 3.60

* * *

Target: KRas G12D (Homo sapiens, UniProt P01116, G12D)
Test: KRas G12D Surface Plasmon Resonance (SPR) Binding Assay
Settings: Biacore T200, biotinylated Avidin-tagged KRAS protein on SA chip, 20 C, 1:1 binding model
property-label: Kd (µM)
Express your answer in µM, writing the number without its unit.

molecule | Kd [µM]
CC(Oc1nc2c(c(N3C[C@H]4CC[C@@H](C3)N4)n1)CCN(c1cc(O)c(Cl)c3ccccc13)C2)[C@@H]1CCCN1 (stereo partly drawn) [Example 26] | 0.325
FC1CN2CCCC2(COc2nc3c(c(N4CC5CC(F)C(C4)N5)n2)CCN(c2cccc4cccc(Cl)c24)C3)C1 (racemic) [Example 44] | 0.0439
CN1CCC[C@H]1COc1nc2c(c(N3C[C@H]4CC[C@@H](C3)N4)n1)CCN(c1c(F)cccc1C(F)(F)F)C2 [Example 75] | 170
CN1CCC[C@H]1COc1nc2c(c(N3C[C@H]4CC[C@@H](C3)N4)n1)CCN(c1cccc3cccc(Cl)c13)C2 [Example 2] | 0.163
Fc1ccc2cccc(N3CCc4c(nc(OCC56CCCN5CCC6)nc4N4C[C@H]5CC[C@@H](C4)N5)C3)c2c1Cl [Example 62] | 0.0081

// Kd lookup, molecule = COc1nc2c(c(N3C[C@H]4CC[C@@H](C3)N4)n1)CCN(c1cccc3cccc(C)c13)C2 [Example 22] , result: 302

Kd for CN1CCC[C@H]1COc1nc2c(c(N3C[C@H]4C/C(=C/C#N)[C@@H](C3)N4)n1)CCN(c1cccc3cccc(Cl)c13)C2 (single isomer, unassigned) [Example 90] is 0.938

The molecule listed as CN1CCC[C@H]1COc1nc2c(c(N3C[C@H]4CC[C@@H](C3)N4)n1)CCN(c1cccc3c1C(CC#N)CCC3)C2 (stereo partly drawn) [Example 85] shows Kd equal to 1.51

Measured Kd, CN1CCC[C@H]1COc1nc2c(c(N3CC4CC(O)C(C3)N4)n1)CCN(c1cc(O)cc3ccccc13)C2 (mixture of isomers) [Example 4] : 0.0015

Kd recorded for this molecule, Clc1cccc2cncc(N3CCc4c(nc(OCC56CCCN5CCC6)nc4N4C[C@H]5CC[C@@H](C4)N5)C3)c12 [Example 30] , is 0.0871

response.value for Cc1ccc2cccc(N3CCc4c(nc(OC[C@@H]5CCCN5C)nc4N4C[C@H]5CC[C@@H](C4)N5)C3)c2c1 [Example 110] (field: Kd) = 3.23

So, CO[C@@H]1C[C@@H]2CN(c3nc(OC[C@@H]4CCCN4C)nc4c3CCN(c3cc(O)cc5ccccc35)C4)C[C@H]1N2 [Example 37] ? Its Kd was 12.8

Value of Kd reported for the molecule CN1CCC[C@H]1COc1nc2c(c(N3CC4CC(F)C(C3)N4)n1)CCN(c1cc(O)cc3ccccc13)C2 (stereo partly drawn) [Example 38] is 2.34

The recorded Kd for CN1CCC[C@H]1COc1nc2c(c(N3C[C@H]4C/C(=C\C#N)[C@@H](C3)N4)n1)CCN(c1cccc3cccc(Cl)c13)C2 (single isomer, unassigned) [Example 89] is 27.1

The recorded Kd for entry CN1CCC[C@H]1COc1nc2c(c(N3C[C@H]4CC[C@@H](C3)N4)n1)CCN(c1c(F)ccc(F)c1C(F)F)C2 [Example 76] equals 97
